- System: CRL-7250
- Method: Cytotoxic Profiling of Annotated Libraries Using Quantitative High-Throughput Screening (AID 1296008); further: on the % scale 0 is the no-effect control and ±100 the full control effect
- Measurement Conditions: Five cell lines viability, CellTiter-Glo ATP luminescence, 48-72 h; stronger effect = lower value
Inconclusive results are not listed.
Provide the reported max response of each item.
Please give a number only; it is taken to be in %.

// sample "CCN(CC)CCCCCCNc1cc(OC)cc2c(C)ccnc12" , its max response was -13.4

// sample "COc1c(C)cc(NC(=O)c2nn(Cc3ccc(F)cc3)c3c2CN(C(=O)c2ccc[nH]2)C[C@]3(C)C(N)=O)cc1C" , its max response was -1.93

// sample "CC(C)(C)c1ccc(C(=O)Nc2cc(Cl)c(Br)cc2C(=O)O)cc1" , its max response was -0.778

// sample "O=C1Nc2nc(-c3c(O)cccc3OCC3CC3)cc([C@@H]3CCCNC3)c2CO1" , its max response was -29.4

// sample "Cc1cccc(-c2[nH]ncc2-c2ccnc3ccccc23)n1" , its max response was -17.2

// sample "CCC(CC)(NC(=O)C(C)C)C(=O)N[C@@H](CCCN=C(N)N)C(=O)NC1(C(=O)NC(c2ccc(F)cc2)c2ccc(F)cc2)CCCC1" , its max response was 2.72

// sample C=CC(C)(O)CC[C@@H]1[C@@]2(C)CCCC(C)(C)C2CC[C@@]1(C)O (stereo partly drawn) , its max response was -17.3

// sample "O=C(NC1CCC1)c1ccc(C#Cc2cccc(F)c2)nc1" , its max response was -2.08

// sample "CCOc1cn(-c2ccc(F)cc2C)nc1C(=O)Nc1ccc(Oc2ccnc3cc(OC)c(OC)cc23)c(F)c1" , its max response was -25.1

// sample CC1(CO)CC(O)[C@]2(C(=O)O)CCC34CC3(C=CC3[C@]5(C)C(CC[C@]34C)C(C)(CO)[C@@H](O)[C@H](O)[C@@H]5O)C2C1 (stereo partly drawn) , its max response was -11.7

// sample "CCCNCCc1ccc(NS(=O)(=O)c2ccc(OC(F)(F)F)cc2)cc1" , its max response was -2.99

// sample "O=C(NCCCNC(=O)c1ccc[nH]c1=O)c1cc(-c2ccccc2)on1" , its max response was -21.2

// sample "CNC(=O)c1cc(Oc2ccc(NC(=O)c3cccc(C(F)(F)F)c3)cc2)ccn1" , its max response was -16.9

// sample C=C1C(=O)O[C@@H]2[C@H]1CC[C@H](C)[C@]1(CCC(=O)O1)C2(C)O (stereo partly drawn) , its max response was -3

// sample CC1OC2OC(=O)C3(C)CC4C5(CO5)C5=CC(=O)OC(C)(C)C5=CC(=O)C4(C)C(C1=O)C23 (stereo not drawn) , its max response was -8.36

// sample "COc1ccccc1C(=O)Nc1cccc(NC(=O)c2cccc(C)c2)c1" , its max response was -5.11

// sample "Fc1ccc2[nH]ccc2c1-c1nc(N2CCOCC2)c2sc(CN3CCN(CC4CC4)CC3)cc2n1" , its max response was -20.6

// sample CC(C)(F)CC(NC(c1ccc(-c2ccc(S(C)(=O)=O)cc2)cc1)C(F)(F)F)C(=O)NC1(C#N)CC1 (stereo not drawn) , its max response was -1.34

// sample "O=c1cc(NCCCN[C@@H]2CCOc3c(Br)cc(Br)cc32)[nH]c2ccsc12" , its max response was 1.96

// sample CC(=O)O[C@@H]1C[C@]2(C)[C@@]3(CCC4[C@@]5(C)CC[C@H](O[C@@H]6O[C@H](C(=O)O)[C@@H](O)[C@H](OC7OC(CO)C(O)C(O)[C@H]7O[C@@H]7O[C@@H](C)[C@H](O)[C@@H](O)[C@H]7O[C@@H]7OC[C@](O)(CO)[C@H]7O)[C@H]6OC6OC(CO)C(O)C(O)C6O)C(C)(C)C5CC[C@]42C)OC[C@@]12CCC(C)(C)CC23 (stereo partly drawn) , its max response was -2.03

// sample CC(=O)OC1C(=O)C2C3OCC4=C3[C@@](C)(CC[C@@H]4O)CC[C@]2(C)[C@H]1C(C)C (stereo partly drawn) , its max response was 0.411

// sample "CC(C)C[C@H](CO)Nc1nc(S[C@@H](C)c2ccccc2)nc2nc(N)sc12" , its max response was 1.1

// sample CC1CC(=O)C2=C(C1)C1OC1C1(O)C2C(=O)c2cccc(O)c2C1O (stereo not drawn) , its max response was -42.8

// sample C=C1C(=O)OC2CC(C)C(CCC(C)O)=CCC12 (stereo not drawn) , its max response was -9.97

// sample "Cc1cc2c(cc1N1C(=O)c3cccc4c(CCCO)ccc(c34)C1=O)n(C)c(=O)n2C" , its max response was -31.8

// sample CCC(C)CNCC(=O)N1CCc2sccc2C1COc1cccc(C)c1 (stereo not drawn) , its max response was -0.461

// sample C[C@@H]1O[C@@H](O[C@H]2[C@H](O[C@H]3CC[C@@]4(C)C(CC[C@]5(C)C4C=C[C@]46OC[C@@]7(CCC(C)(C)C[C@H]74)[C@@H](O[C@@H]4O[C@@H](C)[C@H](O)[C@@H](O)[C@H]4O)C[C@]65C)[C@]3(C)CO)O[C@H](CO)[C@@H](O)[C@@H]2O[C@@H]2O[C@H](CO)[C@@H](O)[C@H](O)[C@H]2O)[C@H](O)[C@H](O)[C@H]1O (stereo partly drawn) , its max response was -7.16

// sample "CC(C)Oc1ccc(-c2cnc3c(-c4ccnc5ccccc45)cnn3c2)cc1" , its max response was 0.774

// sample CCC(C)CNCC(=O)N1CCC2SC=CC2C1COc1cccc(C)c1 (stereo not drawn) , its max response was -4.73

// sample CN1CC2CN(c3ccc4oc5ccccc5c(=O)c4c3)CC2C1 (stereo not drawn) , its max response was -0.983

// sample "NC(N)=NC(=O)c1cnn(-c2cccc3ncccc23)c1C1CC1" , its max response was -23.8

// sample C/C=C(\C)C(=O)OC1C[C@@]2(COC(C)=O)O[C@H]2/C=C\[C@@]2(C)O[C@@H]2[C@H]2OC(=O)C(COC(C)=O)=C12 (stereo partly drawn) , its max response was -2.2

// sample "C#CCCCn1cc(-c2cccc3c2N[C@H](C)CC(=O)N3)cn1" , its max response was -3.86
